- protocol_notes: Metabolic stability in mouse plasma assessed as compound remaining at 1 ug/ml after 30 mins
- Assay type: ADME, cell-free
- reported_conditions: read-out: Stability
// values below are reported remaining at 0.5 h, 1 ug/ml
Response body: numeric value in %, unit text excluded.

Some solved cases for reference:
INSERT INTO measurements (compound, value_measured) VALUES
  ('C[C@H](NP(=O)(OC[C@H]1O[C@@H](n2cnc3c(=O)[nH]c(N)nc32)[C@](C)(O)[C@@H]1O)Oc1cccc2ccccc12)C(=O)O[C@@H](C)c1ccccc1 (stereo partly specified)', 3.1),
  ('CC(C)C[C@H](NP(=O)(OC[C@H]1O[C@@H](n2cnc3c(=O)[nH]c(N)nc32)[C@](C)(O)[C@@H]1O)Oc1cccc2ccccc12)C(=O)OCc1ccccc1 (stereo partly specified)', 2),
  ('CSCC[C@H](NP(=O)(OC[C@H]1O[C@@H](n2cnc3c(=O)[nH]c(N)nc32)[C@](C)(O)[C@@H]1O)Oc1cccc2ccccc12)C(=O)OC(C)C (stereo partly specified)', 76),
  ('CC(C)[C@H](NP(=O)(OC[C@H]1O[C@@H](n2cnc3c(=O)[nH]c(N)nc32)[C@](C)(O)[C@@H]1O)Oc1cccc2ccccc12)C(=O)OCc1cccc(Cl)c1 (stereo partly specified)', 79),
  ('C[C@H](NP(=O)(OC[C@H]1O[C@@H](n2cnc3c(=O)[nH]c(N)nc32)[C@](C)(O)[C@@H]1O)Oc1cccc2ccccc12)C(=O)OCC(C)(C)C (stereo partly specified)', 0.3);

Recorded remaining at 0.5 h, 1 ug/ml for CC(C)OC(=O)[C@H](C)NP(=O)(OC[C@H]1O[C@@H](n2cnc3c(=O)[nH]c(N)nc32)[C@](C)(O)[C@@H]1O)Oc1cccc2ccccc12 (stereo partly specified) , please?
14
